experiment: Tumor uptake and tissue distribution in mice bearing SJSA-1 xenografts; format: in vivo, athymic mice; details: athymic, mouse, blood, iv, 166.5 kBq, total radioactivity
ENDPOINT_NAME: tissue uptake at 24 h (%ID/g)
Give bare numbers, in %ID/g.

**Query** Need tissue uptake at 24 h, item CC(=O)N[C@@H](CCCCNC(=O)c1cccc(I)c1)C(=O)NCCCCCC(=O)N[C@H](C(=O)N[C@@H](CO)C(=O)N[C@@H](Cc1ccccc1)C(=O)N[C@]1(C)CCCCCCC=CCCC[C@@](C)(C(=O)N[C@@H](CCC(=O)O)C(=O)N[C@@H](CC(N)=O)C(=O)N[C@@H](Cc2ccccc2)C(N)=O)NC(=O)[C@H](CC(C)C)NC(=O)[C@H](CC(C)C)NC(=O)[C@H](C)NC(=O)[C@H](Cc2c[nH]c3ccccc23)NC(=O)[C@H](Cc2ccc(O)cc2)NC(=O)[C@H](CCC(=O)O)NC1=O)[C@@H](C)O [[^125I]SIB-VIP116]
**Result** 0.62
